Kindly state pKi for each of the entries shown.
targetEntity: 5-HT2A receptor (Homo sapiens (Human))
Sequence (P28223 whole entry): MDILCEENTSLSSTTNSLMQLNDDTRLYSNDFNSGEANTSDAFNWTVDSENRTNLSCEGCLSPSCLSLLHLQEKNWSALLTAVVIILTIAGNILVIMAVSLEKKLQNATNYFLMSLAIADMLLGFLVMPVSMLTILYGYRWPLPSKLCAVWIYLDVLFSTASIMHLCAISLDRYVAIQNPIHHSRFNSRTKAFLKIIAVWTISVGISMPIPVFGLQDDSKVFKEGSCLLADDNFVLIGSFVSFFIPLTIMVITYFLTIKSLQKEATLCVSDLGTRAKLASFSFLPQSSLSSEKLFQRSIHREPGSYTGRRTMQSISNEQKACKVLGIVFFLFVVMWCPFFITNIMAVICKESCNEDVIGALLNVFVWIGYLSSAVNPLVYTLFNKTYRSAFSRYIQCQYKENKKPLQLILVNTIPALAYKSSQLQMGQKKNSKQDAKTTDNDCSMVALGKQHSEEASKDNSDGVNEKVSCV
measurementProtocol: Competitive 5-HT2A receptor binding assay (3H-Ketanserin, CHO-5-HT2A membrane)
experimentalParameters: CHO-5-HT2A membrane, 3H-Ketanserin; read-out: 5-HT2A (Ki value)
Answers are plain numbers, as −log10 of the molar value.

>>> measured("CC(C)COc1ccc(CN2Cc3cc(F)c(F)cc3CN(C3CCN(C)CC3)C2=O)cc1")
8.22
>>> measured("CC(C)Oc1ccc(CN2Cc3ccc(F)cc3CN(C3CCN(C)CC3)C2=O)c(F)c1")
7.90

Read the next record carefully.
// pKi lookup, key: CC(C)Oc1ccc(CN2Cc3ccc(F)cc3CN(C3CCN(C)CC3)C2=O)cn1
8.01

Hey, just so you know, these numbers are from patent US12559471B2.
